- System: P388 leukemia ip, CD2F1 mice, survival T/C
- TEST_METHOD_NOTES: NCI In Vivo Anticancer Drug Screen. Data for tumor model P388 Leukemia (intraperitoneal) in CD2F1 (CDF1) mice
- PROTOCOL_CONDITIONS: endpoint: median survival time; dose: 200.0 mg/kg/injection; schedule: Q01DX009 (ip); vehicle: Klucel (hydroxypropylcellulose) (HPC); higher = longer survival
Inconclusive results and toxic doses are left out.
QUANTITY_NAME: T/C

{"MOL_SMILES": "CCN(CC)C(=O)S(=O)(=O)c1ccccc1", "SYSTEM_UNDER_TEST": "P388 leukemia ip, CD2F1 mice, survival T/C", "QUANTITY_NAME": "T/C", "TEST_RESULT": "110 % of control"}
{"MOL_SMILES": "CCOc1ccc(NC(=O)OCc2c3ccccc3cc3ccccc23)cc1", "SYSTEM_UNDER_TEST": "P388 leukemia ip, CD2F1 mice, survival T/C", "QUANTITY_NAME": "T/C", "TEST_RESULT": "105 % of control"}

Turning now to a further record.
T/C lookup needed for `Cn1c(C(C)(C)OC(=O)Oc2ccccc2)cnc1[N+](=O)[O-]` , thanks.
100 % of control
